Tested on: IL10 secretion, OCI-LY10 cells
EXPERIMENT SUMMARY: Human IL10 secretion assay in OCI-LY10 cells (MSD)
Assay type: cell-based
RECORDED CONDITIONS: 24 h incubation, relative to DMSO set as 100%, read-out: IL-10 Secretion IC50
Each entry below carries its recorded IC50.

COMPOUND	IC50
CCn1cc([C@@]2(C)C[C@H](C(=O)Nc3cnc(-n4nccn4)c(Cl)c3)c3cnc4cc(F)nn4c32)cn1 (single isomer, unassigned)	10 to 100 nM
C[C@]1(c2ccn(C(F)F)n2)C[C@H](C(=O)Nc2cnc(-c3ncccn3)c(Cl)c2)c2cnc3cc(F)nn3c21 (single isomer, unassigned)	10 to 100 nM
C[C@]1(c2cnn(C(F)F)c2)C[C@H](C(=O)Nc2cnc(OC(F)F)c(C#N)c2)c2cnc3cc(F)nn3c21 (single isomer, unassigned)	100 to 1000 nM
CC1(c2ccn(C(F)F)n2)CC(C(=O)Nc2cnc(-c3ncc(F)cn3)c(C(F)(F)F)c2)c2cnc3cc(F)nn3c21 (single isomer, unassigned)	100 to 1000 nM
C[C@]1(c2cnn(C(F)F)c2)C[C@H](C(=O)Nc2cnc(-n3nccn3)c(Cl)c2)c2cnc3cc(F)nn3c21 (single isomer, unassigned)	10 to 100 nM
